target: recombinant SARS-CoV-2 Main protease (Mpro) (Severe acute respiratory syndrome coronavirus 2 (2019-nCoV) (SARS-CoV-2), UniProt P0DTD1); assay: Cov Mpro Biochemical IC50 Assay; conditions: recombinant SARS-CoV-2 Mpro 7.5 nM, fluorogenic peptide substrate 40 μM; read-out: MPro IC50
hey, just use met if measured IC50 is less than 7 nM, otherwise not met

>>> df
                                    molecule  labelclass
 0  COc1ccc(Cl)c(-c2cc3[nH]c(=O)n(-c4cncc5cccnc45)c(=O)c3s2)c1 [Example 456]         met
 1  COc1cc(-c2cc3[nH]c(=O)n(-c4cncc5nnn(C)c45)c(=O)c3s2)c(Cl)cc1F     not met
 2  COc1cccc(C#N)c1-c1cc2[nH]c(=O)n(-c3cncc4cnn(C)c34)c(=O)c2s1     not met
 3  COc1ccc(Cl)c(-c2cc3[nH]c(=O)n(-c4cncc5ccc(N6CCOCC6)nc45)c(=O)c3s2)c1         met
 4  COc1cc(-c2cc3c(s2)c(=O)n(-c2cncc4nc(C(F)(F)F)n(C)c24)c(=O)n3CCC#N)c(Cl)cc1F (single isomer, unassigned) [Example 973]         met
 5  Cn1ncc2cncc(-n3c(=O)c4sc(-c5cc(F)ccc5Cl)cc4n(CC#N)c3=O)c21         met
 6  Cc1cc(F)cc(Cl)c1-c1cc2[nH]c(=O)n(-c3cncc4ccccc34)c(=O)c2s1     not met
 7  COc1ccc(C#N)c(-c2cc3[nH]c(=O)n(-c4cncc5cc(C(C)(C)O)sc45)c(=O)c3s2)c1     not met
 8  COc1ccc(C#N)c(-c2cc3[nH]c(=O)n(-c4cncc5cnn(CC(F)(F)F)c45)c(=O)c3s2)c1     not met
 9  O=c1[nH]c2cc(-c3c(Cl)cccc3-c3cnc4n3CCC4)sc2c(=O)n1-c1cncc2ccccc12     not met
10  COc1cnc(C#N)c(-c2cc3c(s2)c(=O)n(-c2cncc4cnn(C)c24)c(=O)n3CCC#N)c1     not met
11  COc1ccc(Cl)c(-c2cc3[nH]c(=O)n(-c4cncc5ccc(O)cc45)c(=O)c3s2)c1         met
12  COc1cc(-c2cc3c(s2)c(=O)n(-c2cncc(Cl)c2C)c(=O)n3CCC#N)c(C#N)cc1F         met
13  COc1cc(-c2cc3[nH]c(=O)n(-c4nncc5ccccc45)c(=O)c3s2)c(Cl)cc1F     not met
14  COc1cc(-c2cc3[nH]c(=O)n(-c4cncc5ccn(C)c45)c(=O)c3s2)c(Cl)cc1F [Example 454]         met
